Target: Tyrosine-protein phosphatase non-receptor type 22 (Homo sapiens)
Assay: blockers of human LYP enzyme activity – biochemical, DiFMUP fluorescence, 2 µM, primary screen (AID 640);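 also: 0% = DMSO with enzyme and 100% = enzyme fully blocked by orthovanadate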
Conditions: recombinant LYP catalytic domain, at 2 µM, active compounds read high
Hit rate of the full screen: of about 96,000 compounds, about 200 (0.21%) were called active. Only a selection was taken, and actives are over-represented in it overall.
Endpoint label: inhibition (%)
Express it in %; write the number only.

>>> result("CC(C)(C)c1cc(=O)n2c(nc3ccccc32)[nH]1")
16.2
>>> result("Cc1ccc(CN(C(=O)c2sc3ccccc3c2Cl)C2CCS(=O)(=O)C2)cc1 (stereo unspecified)")
3.5
>>> result("O=C(CSc1nnc(-c2cccs2)n1Cc1ccccc1)N1CCc2ccccc2C1")
-1.7
>>> result("O=C(/C=C/NNC(=O)c1cccc(Br)c1)c1ccccc1")
5.3
>>> result("O=C(Nc1ccccc1[N+](=O)[O-])C1C(c2ccccc2)=C1c1ccccc1")
-0.6

Next:
## Input Recorded inhibition for CCSc1nc(-c2ccc(OC)cc2)cc(-c2ccc(OC)cc2)c1C#N , please?
## Output -15.9

###

Target: Tyrosine-protein phosphatase non-receptor type 22 (Homo sapiens) (UniProt Q9Y2R2)
Sequence (Q9Y2R2 whole entry, looked up): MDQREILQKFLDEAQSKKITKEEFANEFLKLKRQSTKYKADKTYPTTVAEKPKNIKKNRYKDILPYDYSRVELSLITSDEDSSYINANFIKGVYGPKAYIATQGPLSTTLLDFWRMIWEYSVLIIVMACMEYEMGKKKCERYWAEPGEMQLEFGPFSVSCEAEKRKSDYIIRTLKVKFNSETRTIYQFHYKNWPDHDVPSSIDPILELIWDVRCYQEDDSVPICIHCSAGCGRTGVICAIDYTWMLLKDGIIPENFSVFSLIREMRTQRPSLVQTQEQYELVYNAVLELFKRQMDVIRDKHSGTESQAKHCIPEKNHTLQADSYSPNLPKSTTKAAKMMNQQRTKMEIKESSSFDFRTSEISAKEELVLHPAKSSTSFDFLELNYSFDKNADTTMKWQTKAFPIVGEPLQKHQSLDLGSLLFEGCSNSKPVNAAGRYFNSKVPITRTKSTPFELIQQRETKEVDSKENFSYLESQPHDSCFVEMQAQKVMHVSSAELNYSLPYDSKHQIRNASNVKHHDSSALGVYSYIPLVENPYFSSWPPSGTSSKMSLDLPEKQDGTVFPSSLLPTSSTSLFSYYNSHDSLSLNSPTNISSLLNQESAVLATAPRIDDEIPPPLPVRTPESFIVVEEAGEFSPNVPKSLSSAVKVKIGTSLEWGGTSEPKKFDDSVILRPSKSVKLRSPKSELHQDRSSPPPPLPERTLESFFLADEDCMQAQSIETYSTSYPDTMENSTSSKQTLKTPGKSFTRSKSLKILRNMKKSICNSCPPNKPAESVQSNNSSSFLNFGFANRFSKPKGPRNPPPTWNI
Test: blockers of human LYP enzyme activity – biochemical, DiFMUP fluorescence, 2 µM, primary screen (AID 640);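 also: 0% = DMSO with enzyme and 100% = enzyme fully blocked by orthovanadate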
Conditions: recombinant LYP catalytic domain, at 2 µM
The whole screen tested about 96,000 compounds, of which about 200 (0.21%) were called active.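 The calls were made as follows: active = inhibition at 2 µM at or above a set limit, the screen mean plus 3 SD (cut at about 24% in these data); inactive = the rest.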 Many of the other results were omitted from the sample, so actives are more common in it than they were.
Hi! Could you answer with just one of these? active, inactive

Please review the entries below; each comes with its answer.
>>> class_assignment("CCCCN1C(=O)/C(=C2/C=CC=CN2C)SC1=S")
"inactive"
>>> class_assignment("COc1ccc(C(C#N)Nc2ccccc2C)cc1 (stereo unspecified)")
"inactive"
>>> class_assignment("CC(=O)c1c(C)[nH]c(C(=O)NCc2ccc(C)cc2)c1C")
"inactive"
>>> class_assignment("CCN1C(=O)/C(=C2/Sc3ccc(OC)cc3N2C)SC1=Nc1ccc(C)cc1")
"inactive"
>>> class_assignment("COCCN(C(=O)c1ccco1)c1nnc(-c2ccc(OC)cc2)s1")
"inactive"

## Input Would you mind telling me which call this test gave O=C(Nc1ccccc1)O/N=C1\CCCCC1c1ccc([N+](=O)[O-])cc1[N+](=O)[O-] (stereo unspecified) ?
## Output inactive

## Input Would you mind telling me which call this test gave CCCCc1nnc(NC(=O)CS(=O)(=O)Cc2ccccc2)s1 ?
## Output inactive

## Input Would you mind telling me which call this test gave CNC(=O)c1nnc(Cc2ccc(Cl)cc2)o1 ?
## Output inactive

## Input Would you mind telling me which call this test gave CCCCCCc1cc2cc(-c3nnc(-c4cccc(OC)c4)o3)c(=O)oc2cc1O ?
## Output active

## Input Would you mind telling me which call this test gave CCCCN(CC)CCCNC(=O)CS(=O)(=O)Cc1nc(-c2cccc(OC)c2)oc1C ?
## Output inactive

## Input Would you mind telling me which call this test gave CCCCCCc1cc2cc(-c3nnc(-c4ccccc4)o3)c(=O)oc2cc1O ?
## Output inactive

###

Listing of recorded inhibition by entry.
Target: Tyrosine-protein phosphatase non-receptor type 22 (Homo sapiens)
Assay: blockers of human LYP enzyme activity – biochemical, DiFMUP fluorescence, 2 µM, primary screen (AID 640);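 also: 0% = DMSO with enzyme and 100% = enzyme fully blocked by orthovanadate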
Conditions: recombinant LYP catalytic domain, at 2 µM, active compounds read high
Out of some 96,000 compounds screened, about 200 (0.21%) were called active. This excerpt belongs to a sample that is enriched for actives.
Express it in %; write the number only.

Example results:
>>> result("CCOc1c2ccc(C(=O)NCc3ccc4c(c3)OCO4)cc2nn1C")
-4.3
>>> result("COc1ccc(Cc2nnc(SCC(=O)c3cccc([N+](=O)[O-])c3)n2C)cc1")
15.2
>>> result("Cc1ccc(N2CCN(/N=C/c3cccs3)CC2)cc1")
9.9
>>> result("CCOC(=O)C(Sc1ncc(C#N)c(N)n1)C(C)C (stereo unspecified)")
4.5
>>> result("O=C1CCCC2=C1C(c1ccccc1)n1c(s/c(=C/c3cccc(F)c3)c1=O)=N2 (stereo unspecified)")
3.1

Next:
## Input Recorded inhibition for CC1=NN(C(C)C)C(=O)C1 , please?
## Output 1.5

###

Listing of recorded inhibition by entry.
Target: Tyrosine-protein phosphatase non-receptor type 22 (Homo sapiens) (UniProt Q9Y2R2)
Test: blockers of human LYP enzyme activity – biochemical, DiFMUP fluorescence, 2 µM, primary screen (AID 640);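 also: 0% = DMSO with enzyme and 100% = enzyme fully blocked by orthovanadate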
Details: recombinant LYP catalytic domain, at 2 µM, active compounds read high
Among all 96,000 compounds or so, about 200 (0.21%) were called active. Many of the other results were omitted from the sample, so actives are more common in it than they were.

>>> result("O=C(c1ccc2c(c1)OCO2)N1CCN(C(=O)c2ccco2)CC1")
"-5% (inactive)"

## Input Recorded inhibition for Cc1cc(Cl)c(S(=O)(=O)N(C)C)cc1OCC(N)=O , please?
## Output -3.7% (inactive)

## Input Recorded inhibition for COc1ccc(NC(=O)CSc2nc(N)c(-c3ccccc3)c(=O)[nH]2)cc1 , please?
## Output -3.5% (inactive)

## Input Recorded inhibition for CCn1nc(C)c(NC(=O)/C=C/c2ccc(OC)c(COc3ccc(Br)cc3)c2)c1C , please?
## Output 13.3% (inactive)

## Input Recorded inhibition for CC(=O)Oc1ccc(C(C)=O)c2c1OCCO2 , please?
## Output -11.9% (inactive)

## Input Recorded inhibition for CCOC(=O)c1nc(C)n(-c2ccc(Cl)cc2Cl)n1 , please?
## Output -1.3% (inactive)

## Input Recorded inhibition for c1ccc(-c2nccc(-c3ccc(-n4cnc5ccccc54)cc3)n2)nc1 , please?
## Output 39.8% (active)

## Input Recorded inhibition for COc1cc(CNCc2cccs2)cc(Br)c1OC , please?
## Output 1.7% (inactive)

## Input Recorded inhibition for Cc1cc2nc(SCCN3CCOCC3)[nH]c2cc1C , please?
## Output -1% (inactive)

###

Molecular target: Tyrosine-protein phosphatase non-receptor type 22 (Homo sapiens)
Assay: blockers of human LYP enzyme activity – biochemical, DiFMUP fluorescence, 2 µM, primary screen (AID 640);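 also: 0% = DMSO with enzyme and 100% = enzyme fully blocked by orthovanadate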
Conditions: recombinant LYP catalytic domain, at 2 µM, active compounds read high
In all, about 96,000 compounds went through this assay and about 200 (0.21%) were called active. The list comes from a sample in which actives are over-represented; it also holds close analogues and randomly drawn compounds.
Listing of recorded inhibition by entry.
Express it in %; write the number only.

Example results:
>>> result("CCC(C)NC(=O)CSC1=Nc2ccccc2C2=NC(CCC(=O)NCc3ccco3)C(=O)N12 (stereo unspecified)")
6.7
>>> result("COC(=O)CNC(c1ccccc1Cl)c1cc(Br)ccc1NC(=O)CCN1CCOCC1 (stereo unspecified)")
7.7
>>> result("Cn1cc([N+](=O)[O-])c(C(=O)Nc2ccc3c(c2)OCCO3)n1")
3.8
>>> result("O=C(Nc1ccccc1C(=O)NCCCn1ccnc1)c1ccc(Cl)cc1Cl")
4.3
>>> result("CCCCNCc1ccc(SC)cc1")
-8.8

## Input Recorded inhibition for COc1ccc(Br)cc1CN1CCN(C(=O)c2cccc(OC)c2OC)CC1 , please?
## Output 0.1

## Input Recorded inhibition for O=S(=O)(NN=C1CCCCCCC1)c1ccc(Br)cc1 , please?
## Output 6.1

## Input Recorded inhibition for O=C(CCCN1C(=O)c2ccccc2C1=O)Oc1ccc(Cl)cc1 , please?
## Output 4.1

## Input Recorded inhibition for Cc1nc(NC(=O)CN(C)S(=O)(=O)c2ccc(Cl)cc2)sc1C , please?
## Output 6.8

## Input Recorded inhibition for COc1ccc(/C(O)=C2/C(=O)C(=O)N(CC3CCCO3)C2c2ccc(OC)c(OC)c2)cc1 (stereo unspecified) , please?
## Output -1.4

## Input Recorded inhibition for CCOC(=O)C1CN(S(=O)(=O)c2ccc(F)cc2)C1 , please?
## Output 8.4

###

Listing of recorded inhibition by entry.
Molecular target: Tyrosine-protein phosphatase non-receptor type 22 (Homo sapiens)
Test: blockers of human LYP enzyme activity – biochemical, DiFMUP fluorescence, 2 µM, primary screen (AID 640);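 also: 0% = DMSO with enzyme and 100% = enzyme fully blocked by orthovanadate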
Settings: recombinant LYP catalytic domain, at 2 µM, active compounds read high
In all, about 96,000 compounds went through this assay and about 200 (0.21%) were called active. Many of the other results were omitted from the sample, so actives are more common in it than they were.
Express it in %; write the number only.

Example results:
>>> result("O=C1Nc2cc(Cl)c(Cl)cc2N(O)N1c1cc(Cl)cc(Cl)c1")
-15.4
>>> result("CCOc1c2ccc(C(=O)NC3CCCc4ccccc43)cc2nn1CC (stereo unspecified)")
-7.5
>>> result("Cc1ccc(CN2CCN(/N=C/c3ccco3)CC2)c(C)c1")
6.2

## Input Recorded inhibition for O=S(=O)(N/N=C\c1cccn1-c1ccccc1)c1ccc2ccccc2c1 , please?
## Output -4.4

## Input Recorded inhibition for CCNc1nc(NC(C)C)nc(OCCOC(=O)c2ccccc2)n1 , please?
## Output -0.4

## Input Recorded inhibition for CC(C)(C)C(=O)Nc1ccc(C(=O)N/N=C/c2ccccc2OC(=O)c2ccc(Cl)cc2Cl)cc1 , please?
## Output 13
